Where these numbers come from: patent EP0908457B1

Tested on: Echinochloa oryzoides (Ard.) Fritsch.
Test: Preemergence weed control under flooded paddy conditions, ECHORC (Watergrass (Calif.))
Assay type: in vivo
Settings: Rate 0.0620 kg/ha; preemergence, flooded paddy; rated three to four weeks after treatment
Overview of recorded ECHORC herbicidal effect rating for various compounds
Reply with the value as a number alone.

INSERT INTO measurements (compound, value) VALUES
  ('Cn1c(C(F)(F)F)cc(=O)n(-c2ccc3snc(-c4ccccc4OCC(=O)NS(C)(=O)=O)c3c2)c1=O [Example 268]', 3.0),
  ('C#CCOC(=O)COc1c(-c2nsc3ccc(-n4c(=O)cc(C(F)(F)F)n(C)c4=O)cc23)ccc(C)c1C [Example 280]', 5.7),
  ('COC(=O)C(C)Oc1ccc(-c2nsc3ccc(-n4c(=O)cc(C(F)(F)F)n(C)c4=O)cc23)cc1 (stereo not shown) [Example 258]', 0.0);

API: the following record is the query input.
// query Please supply the value of reported ECHORC herbicidal effect rating for the item Cc1ccc(OCC(=O)NS(=O)(=O)c2sc(C)nc2C)c(-c2nsc3ccc(-n4c(=O)cc(C(F)(F)F)n(C)c4=O)cc23)c1 [Example 288]
// result 0.0
